target: Glutaminase kidney isoform, mitochondrial (Homo sapiens); assay: Inhibition of GLS in human PC-3 cells using glutamine as substrate by amplex red staining-based horseradish peroxidase/glutamate oxidase coupled assay
Sequence (O94925 whole entry, canonical isoform): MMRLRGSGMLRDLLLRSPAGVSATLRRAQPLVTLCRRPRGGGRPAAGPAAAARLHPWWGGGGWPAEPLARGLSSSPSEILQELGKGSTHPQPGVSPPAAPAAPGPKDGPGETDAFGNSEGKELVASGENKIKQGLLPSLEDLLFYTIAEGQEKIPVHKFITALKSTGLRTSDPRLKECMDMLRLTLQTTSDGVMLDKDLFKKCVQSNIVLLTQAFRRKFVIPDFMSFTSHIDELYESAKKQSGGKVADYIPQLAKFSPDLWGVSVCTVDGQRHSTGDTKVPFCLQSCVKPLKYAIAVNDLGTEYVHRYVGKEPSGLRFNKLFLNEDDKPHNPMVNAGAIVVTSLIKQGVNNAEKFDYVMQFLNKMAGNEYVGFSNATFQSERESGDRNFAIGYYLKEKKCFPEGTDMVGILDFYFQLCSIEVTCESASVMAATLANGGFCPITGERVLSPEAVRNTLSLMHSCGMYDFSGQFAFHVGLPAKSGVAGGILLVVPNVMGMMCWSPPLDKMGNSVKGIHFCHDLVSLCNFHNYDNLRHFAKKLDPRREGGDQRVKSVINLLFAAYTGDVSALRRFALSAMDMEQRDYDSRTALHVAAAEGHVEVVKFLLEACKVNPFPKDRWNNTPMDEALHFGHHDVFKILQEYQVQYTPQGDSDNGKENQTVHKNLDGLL
ASSAY_METRIC: IC50 (nM)
The answer is to be given in nM; state only the numeric part.

GET /values?readout=IC50&item= COC(C(=O)Cc1cnc(NC2CCN(c3cncnn3)C2)s1)c1cccc(OC(F)(F)F)c1 (stereo unspecified)
43

----------
// endpoint pIC50 / system Vascular endothelial growth factor receptor 2 (Homo sapiens, UniProt P35968)
Just so you know, pIC50 here is -log10 of the concentration in molar units; reply with that number alone.

Illustrative cases are given below, each with its answer.
>>> df
                    chemical_string  reported
0  Cc1cc2c(Nc3ccc(F)c(Cl)c3)ncnn2c1      6.82
1  Cc1ccc(Nc2ncnn3cc(C)c(C)c23)cc1O      6.70
2   Cc1cc2c(Nc3ccc(C)c(O)c3)ncnn2c1      6.18
3  Cc1ccn2ncnc(Nc3ccc(F)c(Cl)c3)c12      7.00
4     Cc1ccc(Nc2ncnn3ccc(C)c23)cc1O      6.46

GET /values?readout=pIC50&item= `Cc1ccc2c(Nc3ccc(F)c(Cl)c3)ncnn12`
5.49

GET /values?readout=pIC50&item= `Fc1ccc(Nc2ncnn3cccc23)cc1Cl`
6.93
